TEST NAME: Probe fluorescence ratio response to stearic acid relative to ADIFAB2
Assay type: binding
ASSAY SETUP: response relative to ADIFAB2
Each item that follows carries a reported DR/DR SA.
ENDPOINT LABEL: DR/DR SA

{"columns": ["MOLECULE", "REPORTED RESULT"],
 "data": [
  ["72G 73W (protein, listed as Rattus norvegicus, PEPTIDE (1)...(131) wild-type rat intestinal fatty acid binding protein) AFDGTWKVDRNENYEKFMEKMGINVVKRKLGAHDNLKLTITQEGNKFTVKESSNFRNIDVVFELGVDFAYSGWDGTELTGTWTMEGNKLVGKFKRVDNGKELIAVREISGNELIQTYTYEGVEAKRIFKKE", 0.294],
  ["74T 72A 73F (protein, listed as Rattus norvegicus, PEPTIDE (1)...(131) wild-type rat intestinal fatty acid binding protein) AFDGTWKVDRNENYEKFMEKMGINVVKRKLGAHDNLKLTITQEGNKFTVKESSNFRNIDVVFELGVDFAYSAFTGTELTGTWTMEGNKLVGKFKRVDNGKELIAVREISGNELIQTYTYEGVEAKRIFKKE", 0.273],
  ["38Y 18L 73V 72A (protein, listed as Rattus norvegicus, PEPTIDE (1)...(131) wild-type rat intestinal fatty acid binding protein) AFDGTWKVDRNENYEKFLEKMGINVVKRKLGAHDNLKYTITQEGNKFTVKESSNFRNIDVVFELGVDFAYSAVDGTELTGTWTMEGNKLVGKFKRVDNGKELIAVREISGNELIQTYTYEGVEAKRIFKKE", 0.824]
]}
